- Test system: wheat (Triticum aestivum)
- Experiment summary: Test B pre-/postemergence plant response
- Format: in vivo
- Settings: Preemergence, 31 g ai/ha; scale 0 to 100 (0 no effect, 100 complete control)
Assay endpoint: Plant response rating, Wheat
Give bare numbers.

Example entries and their recorded answers appear below.
>>> print(df.to_string())
                                   compound  measured
0  CCCC(=O)Oc1cnn(C)c(=O)c1-n1nc(-c2ccc(Cl)cc2)cc1C [Compound 56]        35
1  CCOC(=O)Oc1cnn(C)c(=O)c1-n1nc(-c2ccc(Cl)cc2)cc1C [Compound 53]         0
2  CCc1cc(-c2ccc(C(F)(F)F)cc2)nn1-c1c(O)c(OC)nn(C)c1=O [Compound 66]        95

Field: next compound
**Q:** Request the reported Plant response rating, Wheat associated with Cc1cc(-c2ccc(Cl)cc2)nn1-c1c(OS(=O)(=O)c2ccc(Cl)s2)cnn(C)c1=O [Compound 55]
**A:** 0

====

- Test system: bermudagrass (Cynodon dactylon)
- Experiment summary: Test B pre-/postemergence plant response
- Format: in vivo
- Settings: Postemergence, 62 g ai/ha; scale 0 to 100, 0 no effect, 100 complete control
Assay endpoint: Plant response rating, Bermudagrass
Answers are plain numbers.

Example entries and their recorded answers appear below.
>>> print(df.to_string())
                           smiles_structure                       assay_endpoint  measured
0  CCCC(=O)Oc1cnn(C)c(=O)c1-n1nc(-c2ccc(Cl)cc2)cc1C  Plant response rating, Bermudagrass       100
1  Cc1cc(-c2ccc(Cl)cc2)nn1-c1c(OC(=O)c2cccc(Cl)c2)cnn(C)c1=O  Plant response rating, Bermudagrass       100

**Q:** Give recorded Plant response rating, Bermudagrass with bermudagrass (Cynodon dactylon) for the following compound: Cc1nn(C)c(=O)c(-n2nc(-c3ccc(Cl)cc3)cc2Cl)c1O
**A:** 20

====

- Test system: johnsongrass (Sorghum halepense)
- Experiment summary: Test B pre-/postemergence plant response
- Type: in vivo
- Settings: Postemergence, 16 g ai/ha; scale 0 to 100
Assay endpoint: Plant response rating, Johnsongrass
One number for each entry.

Example entries and their recorded answers appear below.
In [3]: df
Out[3]:
                           smiles_structure  measured
0  Cc1cc(-c2ccc(C(F)(F)F)c(F)c2)nn1-c1c(O)c(C(F)(F)F)nn(C)c1=O        95
1  Cn1ncc(O)c(-n2nc(-c3ccc(Cl)cc3)cc2C2CC2)c1=O        65
2  Cc1cc(-c2ccc(Cl)cc2)nn1-c1c(OS(=O)(=O)c2ccccc2)cnn(C)c1=O        60

Field: next compound
**Q:** Request the reported Plant response rating, Johnsongrass associated with CCc1cc(-c2ccc(Cl)cc2)nn1-c1c(O)cnn(C)c1=O
**A:** 90

====

- Test system: corn (Zea mays)
- Experiment summary: Test A pre-/postemergence plant response
- Type: in vivo
- Settings: Preemergence, 31 g ai/ha; 0 to 100 scale, 0 is no effect, 100 is complete control
- From the text: […] Plants ranged in height from 2 to 10 cm and were in the one- to two-leaf stage for the postemergence treatment. Treated plants and untreated controls were maintained in a greenhouse for approximately 10 days, after which time all treated plants were compared to untreated controls and visually evaluated for injury. […]
Field: Plant response rating, Corn. Provide a value for each of the compounds that follow.
Answers are plain numbers.

Example entries and their recorded answers appear below.
                                   compound               assay_endpoint  measured
0  CCc1c(C)c(-c2ccc(Br)cc2)nn1-c1c(O)cnn(C)c1=O [Compound 83]  Plant response rating, Corn         0
1  CCCc1cc(-c2ccc(Cl)cc2)nn1-c1c(O)cnn(C)c1=O [Compound 76]  Plant response rating, Corn         0

Field: next compound
**Q:** Request the reported Plant response rating, Corn associated with CCCc1cc(-c2ccc(C(F)(F)F)cc2)nn1-c1c(O)cnn(C)c1=O [Compound 72]
**A:** 20

====

Field: Plant response rating, Johnsongrass. Provide a value for each of the molecules that follow.
- System: johnsongrass (Sorghum halepense)
- Experiment summary: Test B pre-/postemergence plant response
- Assay type: in vivo
- Settings: Postemergence, 62 g ai/ha; scale 0 to 100, 0 no effect, 100 complete control
- From the text: […] Plant species in the flooded paddy test consisted of rice (Oryza sativa), umbrella sedge (Cyperus difformis), ducksalad (Heteranthera limosa) and barnyardgrass (Echinochloa crus-galli) grown to the 2-leaf stage for testing. […] Treated plants and controls were maintained in a greenhouse for 13 to 15 days, after which time all species were compared to controls and visually evaluated. […]
Give bare numbers.

Example entries and their recorded answers appear below.
>>> df
                                   molecule  measured
0  CCc1cc(-c2ccc(Br)cc2)nn1-c1c(O)c(C)nn(C)c1=O       100
1  CCOC(=O)Oc1cnn(C)c(=O)c1-n1nc(-c2ccc(Cl)cc2)cc1C       100
2  Cc1nn(C)c(=O)c(-n2nc(-c3ccc(Cl)cc3)cc2Cl)c1O        80
3  CCCc1cc(-c2ccc(Cl)cc2)nn1-c1c(O)cnn(C)c1=O [Compound 43]       100
4  CCCc1cc(-c2ccc(Cl)cc2)nn1-c1c(O)cnn(C)c1=O [Compound 76]        98

For every record below, what is its Plant response rating, Johnsongrass?
1. CCCc1cc(-c2ccc(C(F)(F)F)cc2)nn1-c1c(O)cnn(C)c1=O
2. CCc1c(C)c(-c2ccc(Br)cc2)nn1-c1c(O)cnn(C)c1=O

**A:**
100
100

====

Field: Plant response rating, Foxtail, Giant. Provide a value for each of the compounds that follow.
- System: giant foxtail (Setaria faberi)
- Experiment summary: Test A pre-/postemergence plant response
- Format: in vivo
- Settings: Preemergence, 500 g ai/ha; 0 to 100 scale (0 no effect, 100 complete control)
Give bare numbers.

                                   compound  measured
0  Cc1nc(-c2ccc(Cl)cc2)nn1-c1c(O)cnn(C)c1=O [Compound 17]        90
1  CCc1cc(-c2ccc(Cl)cc2)nn1-c1c(O)cnn(C)c1=O [Compound 21]       100
2  CCc1cc(-c2ccc(C(F)(F)F)cc2)nn1-c1c(O)c(C)nn(C)c1=O [Compound 16]       100
3  CCn1ncc(O)c(-c2cn(-c3ccc(Cl)cc3)nc2C)c1=O [Compound 65]        90
4  Cc1cc(-c2ccc(C(F)(F)F)cc2)nn1-c1c(O)c(C(F)(F)F)nn(C)c1=O [Compound 42]         0
5  CCc1cc(-c2ccc(Cl)c(Cl)c2)nn1-c1c(OC(=O)OC(C)C)cnn(C)c1=O [Compound 22]       100

Field: next compound
**Q:** Request the reported Plant response rating, Foxtail, Giant associated with Cc1cc(-c2ccc(C(F)(F)F)cc2)nn1-c1c(O)c(C(C)C)nn(C)c1=O [Compound 27]
**A:** 90

====

- Test system: downy bromegrass (Bromus tectorum)
- Experiment summary: Test C pre-/postemergence plant response
- Type: in vivo
- Settings: Preemergence, 62 g ai/ha; scale 0 to 100, 0 no effect, 100 complete control
- Excerpt: […] Treated plants and controls were maintained in a controlled growth environment for 15 to 25 days after which time all species were compared to controls and visually evaluated. […]
Field: Plant response rating, Bromegrass, Downy. Provide a value for each of the compounds that follow.
Numbers only.

                                   compound                            assay_endpoint  measured
0  Cc1nn(C)c(=O)c(-n2nc(-c3ccc(Cl)cc3)cc2C)c1O [Compound 15]  Plant response rating, Bromegrass, Downy        70
1  CCCc1cc(-c2ccc(Cl)cc2)nn1-c1c(O)cnn(C)c1=O [Compound 43]  Plant response rating, Bromegrass, Downy        75
2  Cc1cc(-c2ccc(Cl)cc2)nn1-c1c(OC(=O)c2cccs2)cnn(C)c1=O [Compound 52]  Plant response rating, Bromegrass, Downy        80

For every record below, what is its Plant response rating, Bromegrass, Downy?
1. Cc1cc(-c2ccc(Cl)cc2)nn1-c1c(OC(=O)c2cccc(Cl)c2)cnn(C)c1=O [Compound 32]
2. Cc1cc(-c2ccc(Cl)cc2)nn1-c1c(OS(=O)(=O)c2ccccc2)cnn(C)c1=O [Compound 35]

**A:**
60
60

====

- Tested on: Italian ryegrass (Lolium multiflorum)
- Experiment summary: Test B pre-/postemergence plant response
- Format: in vivo
- Settings: 8 g ai/ha, postemergence; 0-100 scale
Consider the cut-off 90. If the recorded Ryegrass, Italian plant response rating is strictly smaller, the label is Satisfied; if not, the label is Not satisfied.

Worked set:
                           smiles_structure  class_assignment
0  CCc1c(C)c(-c2ccc(Br)cc2)nn1-c1c(O)cnn(C)c1=O         Satisfied
1  Cc1cc(-c2ccc(Cl)cc2)nn1-c1c(OC(=O)c2cccs2)cnn(C)c1=O         Satisfied
2  CCCc1cc(-c2ccc(Cl)cc2)nn1-c1c(O)cnn(C)c1=O         Satisfied
3  CCc1cc(-c2ccc(Br)cc2)nn1-c1c(O)cnn(CC(F)(F)F)c1=O         Satisfied

Below: the item to evaluate.
**Q:** Does the reported Ryegrass, Italian plant response rating of CCc1cc(-c2ccc(Cl)cc2)nn1-c1c(O)cnn(C)c1=O stay below 90?
**A:** Not satisfied
